Data provenance is the supplement of paper PMC6555819.

- System: PPARg:RXRa 90nM:30nM, anti-RXR (NR concentration 90 nM, RXRa partner concentration 30 nM)
- protocol: PBM binding z-score (relative to random genomic background probes); higher = stronger binding; sequences stand for … in GC…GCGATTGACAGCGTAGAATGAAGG
# cutoff 1 applies to PBM binding z-score; >= gives class 1, < gives class 0

Illustrative cases are given below, each with its answer.
- query.sequence: "GCTAGCAGGCCATTTGGGTCACTCAGTGACGGGC"
  assigned.class: "class 0"
- query.sequence: "CCTCGGAGGACAGAAGGTCTGAGCTGTCCGCTTT"
  assigned.class: "class 0"
- query.sequence: "GCGACTGGGGCATCAGCAGGTTACCACAACTTAA"
  assigned.class: "class 0"
- query.sequence: "GCAGACAGGTGAAACGCAGGGAACTCAGGGTGGC"
  assigned.class: "class 0"
- query.sequence: "ACAGACAGGTGATGAAGGTCACTCAGGCTATCAT"
  assigned.class: "class 1"
- query.sequence: "ATCGACAGGTCGACGAGGTGAGTATACACCGTTT"
  assigned.class: "class 0"

Test whether the sequence "CTCGAAAGGTCGTGCTCAGGCGAGTATACCAAAC" records PBM binding z-score of 1 or higher.
class 1

Test whether the sequence "ACTCGGAGGACAAAGGTCAGATCTACGCCAGTGA" records PBM binding z-score of 1 or higher.
class 1

Test whether the sequence "CGTCCAAGGTCAGAAAGGTCAGTGAATGCCGAGT" records PBM binding z-score of 1 or higher.
class 1

Test whether the sequence "CCGACTGGGGCATAAGGTTAACATAAGCCAGCCC" records PBM binding z-score of 1 or higher.
class 1

Test whether the sequence "CCAGACAGGTTAGAAGGTAACTCAGCCTCGATTA" records PBM binding z-score of 1 or higher.
class 0

Test whether the sequence "CCTACTGGGCCAACGTCATTGATCAGTCAAAGCA" records PBM binding z-score of 1 or higher.
class 0
